Each recorded value in this set is attributed to patent US20110288086A1.

Tested on: Hut78 T-Lymphocytic Leukemia cells
assay_remarks: Tumor cell inhibition ratio, CCK-8 kit, Hut78
measurement_context: Homo sapiens, HuT78, read-out: Antiproliferative effect (inhibition ratio) Hut-78
result_type: inhibition at 10 µM (%)
Return type: number; implicit unit %.

The following compounds have reported results that may help.
{"compound": "COc1cc2c(cc1OCCCN1CCOCC1)C1=Nc3cc(Cl)ccc3CN1C=N2", "unit_string": "%", "inhibition at 10 µM": 59.2}
{"compound": "C#Cc1cccc2c1CN1C=Nc3cc(OC)c(OCCCN4CCOCC4)cc3C1=N2", "unit_string": "%", "inhibition at 10 µM": 32.1}
{"compound": "COc1cc2c(cc1OCCCN1CCCC1)C1=Nc3cccc(Cl)c3CN1C=N2", "unit_string": "%", "inhibition at 10 µM": 44.3}
{"compound": "COCCOc1cc2c(cc1OCCOC)C1=Nc3cccc(Br)c3CN1C=N2.Cl [Compound V-2, hydrochloride hemihydrate]", "unit_string": "%", "inhibition at 10 µM": 28.9}

Query: Reported inhibition at 10 µM for COc1cc2c(cc1OCCCN1CCOCC1)C1=Nc3cccc(C#N)c3CN1C=N2 : what is it?
Reply: 65.6

Query: Need inhibition at 10 µM, item COCCOc1cc2c(cc1OCCOC)C1=Nc3cccc(OC)c3CN1C=N2
Reply: 41.1

Query: Param item = COCCOc1cc2c(cc1OCCOC)C1=Nc3cc(CO)cc(N)c3CN1C=N2 ; retrieve measured inhibition at 10 µM.
Reply: 10.3

Query: Requested read-out: inhibition at 10 µM. Entry: COCCOc1cc2c(cc1OCCOC)C1=Nc3cc(C#N)ccc3CN1C=N2
Reply: 35.9

Query: Any idea what inhibition at 10 µM was measured for COCCOc1cc2c(cc1OCCOC)C1=Nc3cc(Cl)ccc3CN1C=N2 ?
Reply: 61

Query: Could you tell me which inhibition at 10 µM is on file for COCCOc1cc2c(cc1OCCOC)C1=Nc3cccc(NC(C)=O)c3CN1C=N2 ?
Reply: 31

Query: Query (compound): COc1cc2c(cc1OCCCN1CCOCC1)C1=Nc3ccc(F)c(Cl)c3CN1C=N2 [Compound V-23, di-p-toluenesulfonate] ; field requested: inhibition at 10 µM
Reply: 42

Query: Entry under review: COCCOc1cc2c(cc1OCCOC)C1=Nc3cccc(C#N)c3CN1C=N2 . Reported inhibition at 10 µM?
Reply: 32.1

====

System: K562 human chronicity marrow leukemic cells
assay_remarks: Tumor cell inhibition ratio, CCK-8 kit, K562
measurement_context: K562, read-out: Antiproliferative effect (inhibition ratio) K562
Entries annotated with measured inhibition at 100 µM
// note: answer is a bare numeric in %

{"molecule": "C#Cc1ccc2c(c1)N=C1c3cc(OCCOC)c(OCCOC)cc3N=CN1C2", "tested_target": "K562 human chronicity marrow leukemic cells", "unit_string": "%", "inhibition at 100 µM": 81.1}
{"molecule": "COCCOc1cc2c(cc1OCCOC)C1=Nc3cc(F)ccc3CN1C=N2", "tested_target": "K562 human chronicity marrow leukemic cells", "unit_string": "%", "inhibition at 100 µM": 93.8}

The record that follows has no inhibition at 100 µM shown yet.
Query: Quick one: inhibition at 100 µM for COCCOc1cc2c(cc1OCCOC)C1=Nc3cccc(Br)c3CN1C=N2.Cl [Compound V-2, hydrochloride hemihydrate] ?
Reply: 91.1
